From: PubChem BioAssay AID1963827

System: 994946-033-R-J1-PDC complex spheroid viability;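 also: spheroids exposed to drugs for 7 days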
PROTOCOL_DESCRIPTION: Anticancer human tumor 994946-033-R-J1-PDC patient-derived melanoma cell line growth inhibition [POLQ]
CONDITION_DETAILS: curve of first compound; second compound 10 µM
pIC50: −log10 of the molar value.
Measured pIC50 by item

- COMPOUND: "O=C(c1cc(Cc2n[nH]c(=O)c3ccccc23)ccc1F)N1CCN(C(=O)C2CC2)CC1 + Cc1cccc(N(C)C(=O)C2C(O)CCN2c2nc(C)cc(C(F)(F)F)c2C#N)c1"
  pIC50: "< 5.00"
- COMPOUND: "CCc1cc2c(N3CCc4c(cc(Cn5ccnc5)cc4-c4cn(C)nc4C(F)(F)F)C3=O)cc(C)nc2c(OC)n1 + COC1C(OC(N)=O)C(O)C(Oc2ccc3c(O)c(NC(=O)c4ccc(O)c(CC=C(C)C)c4)c(=O)oc3c2C)OC1(C)C"
  pIC50: "< 5.00"
- COMPOUND: "COc1cccc(OCCCN)c1-c1cc(Nc2cnc(C#N)cn2)n[nH]1 + COC1C(OC(N)=O)C(O)C(Oc2ccc3c(O)c(NC(=O)c4ccc(O)c(CC=C(C)C)c4)c(=O)oc3c2C)OC1(C)C"
  pIC50: 8.35
- COMPOUND: "CC1COCCN1c1cc(C2(O)CC3CCC(C2)O3)c2cnn(-c3ccn[nH]3)c2n1 (stereo not given) + Nc1ccc(C#CCN(C(=O)Cc2ncc(C(F)(F)F)cc2C(F)(F)F)c2ccc(F)cc2)nn1"
  pIC50: "> 7.50"
- COMPOUND: "COc1cc2cc(C(=O)CCC(=O)O)sc2cc1OC + COC1C(OC(N)=O)C(O)C(Oc2ccc3c(O)c(NC(=O)c4ccc(O)c(CC=C(C)C)c4)c(=O)oc3c2C)OC1(C)C"
  pIC50: "< 5.00"
